Measured Activity, listed per entry for reference.
- experimental.system: Dipeptidyl peptidase 4 (Homo sapiens)
- Sequence (P27487 whole entry): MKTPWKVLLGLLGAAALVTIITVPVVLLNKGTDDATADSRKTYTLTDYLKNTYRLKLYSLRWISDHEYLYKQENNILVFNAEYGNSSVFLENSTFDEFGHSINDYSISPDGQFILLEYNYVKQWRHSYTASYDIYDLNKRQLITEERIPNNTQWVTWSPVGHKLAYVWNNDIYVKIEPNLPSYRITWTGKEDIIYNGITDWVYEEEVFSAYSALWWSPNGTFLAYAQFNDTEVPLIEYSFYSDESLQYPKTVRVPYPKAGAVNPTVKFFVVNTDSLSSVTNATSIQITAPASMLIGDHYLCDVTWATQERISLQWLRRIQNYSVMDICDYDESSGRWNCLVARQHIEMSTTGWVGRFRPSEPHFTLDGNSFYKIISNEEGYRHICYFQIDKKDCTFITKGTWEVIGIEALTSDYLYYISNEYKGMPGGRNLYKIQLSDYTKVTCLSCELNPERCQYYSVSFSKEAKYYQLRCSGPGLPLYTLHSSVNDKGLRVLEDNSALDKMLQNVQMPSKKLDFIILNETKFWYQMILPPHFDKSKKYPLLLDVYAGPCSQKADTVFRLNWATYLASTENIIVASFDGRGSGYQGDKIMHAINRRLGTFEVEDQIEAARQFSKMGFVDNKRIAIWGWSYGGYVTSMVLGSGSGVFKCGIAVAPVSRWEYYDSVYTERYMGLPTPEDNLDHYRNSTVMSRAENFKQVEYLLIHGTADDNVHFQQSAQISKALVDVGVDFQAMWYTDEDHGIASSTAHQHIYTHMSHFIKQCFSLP
- experiment.summary: Conversion of prodrug to parent drug NAP-TSAO-T catalyzed by CD26 after 24 hrs
- Format: ADME
- Set-up: concentration or dose not given beside the values
property.measured: Activity (%)

Cc1cn(C2OC(CO[Si](C)(C)C(C)(C)C)C3(OS(=O)(=O)C=C3N)C2O[Si](C)(C)C(C)(C)C)c(=O)n(CCCNC(=O)[C@@H]2CCCN2C(=O)CN)c1=O (stereo not given in full)	58
Cc1cn(C2OC(CO[Si](C)(C)C(C)(C)C)C3(OS(=O)(=O)C=C3N)C2O[Si](C)(C)C(C)(C)C)c(=O)n(CCCNC(=O)[C@@H]2[C@@H](O)[C@@H](O)CN2C(=O)[C@@H](N)C(C)C)c1=O (stereo not given in full)	0
Cc1cn(C2OC(CO[Si](C)(C)C(C)(C)C)C3(OS(=O)(=O)C=C3N)C2O[Si](C)(C)C(C)(C)C)c(=O)n(CCCNC(=O)[C@H](Cc2ccccc2)NC(=O)[C@@H](N)C(C)C)c1=O (stereo not given in full)	0
Cc1cn(C2OC(CO[Si](C)(C)C(C)(C)C)C3(OS(=O)(=O)C=C3N)C2O[Si](C)(C)C(C)(C)C)c(=O)n(CCCNC(=O)[C@H](CC(C)C)NC(=O)[C@@H](N)C(C)C)c1=O (stereo not given in full)	0
Cc1cn(C2OC(CO[Si](C)(C)C(C)(C)C)C3(OS(=O)(=O)C=C3N)C2O[Si](C)(C)C(C)(C)C)c(=O)n(CCCNC(=O)[C@@H]2C[C@@H](O)CN2C(=O)[C@@H](N)C(C)C)c1=O (stereo not given in full)	43

---

- experimental.system: UniProt:P27487
- experiment.summary: Conversion of prodrug to parent drug NAP-TSAO-T catalyzed by CD26 after 4 hrs
- Assay type: ADME
- Parameters: concentration or dose not given beside the values
Binary label based on Activity with cut-off 20%: below gives Yes, not below gives No.

Cc1cn(C2OC(CO[Si](C)(C)C(C)(C)C)C3(OS(=O)(=O)C=C3N)C2O[Si](C)(C)C(C)(C)C)c(=O)n(CCCNC(=O)[C@@H]2CCCN2C(=O)[C@@H](N)CC(=O)O)c1=O (some centres not stated)	Yes
Cc1cn(C2OC(CO[Si](C)(C)C(C)(C)C)C3(OS(=O)(=O)C=C3N)C2O[Si](C)(C)C(C)(C)C)c(=O)n(CCCNC(=O)[C@@H]2CCCN2C(=O)[C@@H](N)Cc2ccccc2)c1=O (some centres not stated)	No
Cc1cn(C2OC(CO[Si](C)(C)C(C)(C)C)C3(OS(=O)(=O)C=C3N)C2O[Si](C)(C)C(C)(C)C)c(=O)n(CCCNC(=O)[C@@H]2CCCN2C(=O)[C@@H](N)C(C)C)c1=O (some centres not stated)	No
Cc1cn(C2OC(CO[Si](C)(C)C(C)(C)C)C3(OS(=O)(=O)C=C3N)C2O[Si](C)(C)C(C)(C)C)c(=O)n(CCCNC(=O)[C@@H]2C[C@@H](O)CN2C(=O)[C@@H](N)C(C)C)c1=O (some centres not stated)	Yes
Cc1cn(C2OC(CO[Si](C)(C)C(C)(C)C)C3(OS(=O)(=O)C=C3N)C2O[Si](C)(C)C(C)(C)C)c(=O)n(CCCNC(=O)[C@@H]2[C@@H](O)[C@@H](O)CN2C(=O)[C@@H](N)C(C)C)c1=O (some centres not stated)	Yes
Cc1cn(C2OC(CO[Si](C)(C)C(C)(C)C)C3(OS(=O)(=O)C=C3N)C2O[Si](C)(C)C(C)(C)C)c(=O)n(CCCNC(=O)[C@@H]2CCCN2C(=O)[C@@H](N)CCCCN)c1=O (some centres not stated)	No
